# Experiment Description: activity coefficient (dimensionless); of the first substance listed, at infinite dilution; xn = mol fraction of the nth substance listed
# Condition Context: 358.15 K; 100 kPa; Liquid; Chromatography; x1 = 0
Measurement Kind: activity coefficient

Some molecules with recorded activity coefficient:
                                   molecule      measurement_kind  test_result
0  CCCC(=O)OC [methyl butanoate] + CC(O)C(=O)[O-].CC[N+]1(C)CCCC1  activity coefficient         7.84
1  CCOC(C)(C)C [2-ethoxy-2-methylpropane] + CC(O)C(=O)[O-].CC[N+]1(C)CCCC1  activity coefficient         40.7
2  C#CCCC [1-pentyne] + CC(O)C(=O)[O-].CC[N+]1(C)CCCC1  activity coefficient         4.46

I = CCCCCC [hexane] + CC(O)C(=O)[O-].CC[N+]1(C)CCCC1
II = CCCCO [butan-1-ol] + CC(O)C(=O)[O-].CC[N+]1(C)CCCC1
Query string: For the pair I and II , which member has the lower activity coefficient number? Your choice should be expressed through its label.
Result string: II
(II: 0.335, I: 94.6)

1 = CCCCCCCCC [nonane] + CC(O)C(=O)[O-].CC[N+]1(C)CCCC1
2 = CCCCC(C)=O [2-hexanone] + CC(O)C(=O)[O-].CC[N+]1(C)CCCC1
Query string: Name the one with the greater activity coefficient value, either 1 or 2 as given. Your choice should be expressed through its label.
Result string: 1
(1: 326, 2: 7.39)

1 = CC(C)CC(C)(C)C [2,2,4-trimethylpentane] + CC(O)C(=O)[O-].CC[N+]1(C)CCCC1
2 = CCc1ccccc1 [ethylbenzene] + CC(O)C(=O)[O-].CC[N+]1(C)CCCC1
Query string: For the pair 1 and 2 , which member has the lower activity coefficient number? Your choice should be expressed through its label.
Result string: 2
(2: 9.68, 1: 173)

A = CCCCCCCCCC [decane] + CC(O)C(=O)[O-].CC[N+]1(C)CCCC1
B = C1CCCCC1 [cyclohexane] + CC(O)C(=O)[O-].CC[N+]1(C)CCCC1
Query string: For the pair A and B , which member has the lower activity coefficient number? Your choice should be expressed through its label.
Result string: B

---

# Experiment Description: activity coefficient (dimensionless); of the first substance listed, at infinite dilution; xn = mol fraction of the nth substance listed
# Condition Context: 348.15 K; 100 kPa; Liquid; Chromatography; x1 = 0
Measurement Kind: activity coefficient

Some compounds with recorded activity coefficient:
                                   compound  test_result
0  Cc1ccccc1C [1,2-dimethylbenzene] + CC(O)C(=O)[O-].CC[N+]1(C)CCCC1         8.57
1  C=CCCCC [hex-1-ene] + CC(O)C(=O)[O-].CC[N+]1(C)CCCC1         46.6
2  CCCCCCC [heptane] + CC(O)C(=O)[O-].CC[N+]1(C)CCCC1          154

a = CCCCC(C)=O [2-hexanone] + CC(O)C(=O)[O-].CC[N+]1(C)CCCC1
b = CCCCCC [hexane] + CC(O)C(=O)[O-].CC[N+]1(C)CCCC1
c = CCCC(C)=O [pentan-2-one] + CC(O)C(=O)[O-].CC[N+]1(C)CCCC1
Query string: Sort the compounds on activity coefficient; start with the lowest figure. Write the labels in rank order as requested.
Result string: c, a, b

---

# Experiment Description: activity coefficient (dimensionless); of the first substance listed, at infinite dilution; xn = mol fraction of the nth substance listed
# Condition Context: 308.15 K; 100 kPa; Liquid; Chromatography; x1 = 0
Measurement Kind: activity coefficient

Some compounds with recorded activity coefficient:
>>> print(df.to_string())
                                   compound      measurement_kind  test_result
0  C#CCCC [1-pentyne] + CC(O)C(=O)[O-].CC[N+]1(C)CCCC1  activity coefficient         3.18
1  C#CCCCCC [1-heptyne] + CC(O)C(=O)[O-].CC[N+]1(C)CCCC1  activity coefficient         8.33
2  CC(C)OC(C)C [diisopropyl ether] + CC(O)C(=O)[O-].CC[N+]1(C)CCCC1  activity coefficient         55.3
3  C1CCCCCCC1 [cyclooctane] + CC(O)C(=O)[O-].CC[N+]1(C)CCCC1  activity coefficient         95.8
4  C=CCCCCC [1-heptene] + CC(O)C(=O)[O-].CC[N+]1(C)CCCC1  activity coefficient         88.8

A = C#CCCCC [1-hexyne] + CC(O)C(=O)[O-].CC[N+]1(C)CCCC1
B = CCC(C)CC [3-methylpentane] + CC(O)C(=O)[O-].CC[N+]1(C)CCCC1
C = CCCCCCCCCC [decane] + CC(O)C(=O)[O-].CC[N+]1(C)CCCC1
D = CC(C)CC(C)(C)C [2,2,4-trimethylpentane] + CC(O)C(=O)[O-].CC[N+]1(C)CCCC1
Query string: Sort the compounds on activity coefficient; start with the lowest figure. Write the labels in rank order as requested.
Result string: A, B, D, C

---

# Experiment Description: activity coefficient (dimensionless); of the first substance listed, at infinite dilution; xn = mol fraction of the nth substance listed
# Condition Context: 308.15 K; 100 kPa; Liquid; Chromatography; x1 = 0
Measurement Kind: activity coefficient

Some compounds with recorded activity coefficient:
In [3]: df
Out[3]:
                                   compound      measurement_kind  test_result
0  CCCCCC [hexane] + CC(O)C(=O)[O-].CC[N+]1(C)CCCC1  activity coefficient          135
1  C=CCCCC [hex-1-ene] + CC(O)C(=O)[O-].CC[N+]1(C)CCCC1  activity coefficient           56
2  COC(C)(C)C [2-methoxy-2-methylpropane] + CC(O)C(=O)[O-].CC[N+]1(C)CCCC1  activity coefficient         18.1

A = C1CCCC1 [cyclopentane] + CC(O)C(=O)[O-].CC[N+]1(C)CCCC1
B = CCCCCCCCC [nonane] + CC(O)C(=O)[O-].CC[N+]1(C)CCCC1
Query string: For the pair A and B , which member has the lower activity coefficient number? Your choice should be expressed through its label.
Result string: A
(A: 31.7, B: 518)

---

# Experiment Description: activity coefficient (dimensionless); of the first substance listed, at infinite dilution; xn = mol fraction of the nth substance listed
# Condition Context: 328.15 K; 100 kPa; Liquid; Chromatography; x1 = 0
Measurement Kind: activity coefficient

Some molecules with recorded activity coefficient:
>>> print(df.to_string())
                                   molecule  test_result
0  C1CCCC1 [cyclopentane] + CC(O)C(=O)[O-].CC[N+]1(C)CCCC1         28.2
1  C#CCCCC [1-hexyne] + CC(O)C(=O)[O-].CC[N+]1(C)CCCC1         5.79

P = CCC(=O)CC [pentan-3-one] + CC(O)C(=O)[O-].CC[N+]1(C)CCCC1
Q = CCCCCCCCC [nonane] + CC(O)C(=O)[O-].CC[N+]1(C)CCCC1
R = CCC(C)(C)OC [2-methoxy-2-methylbutane] + CC(O)C(=O)[O-].CC[N+]1(C)CCCC1
Query string: Rank order required: activity coefficient, descending. Write the labels in rank order as requested.
Result string: Q, R, P

---

# Experiment Description: activity coefficient (dimensionless); of the first substance listed, at infinite dilution; xn = mol fraction of the nth substance listed
# Condition Context: 328.15 K; 100 kPa; Liquid; Chromatography; x1 = 0
Measurement Kind: activity coefficient

Some molecules with recorded activity coefficient:
In [3]: df
Out[3]:
                                   molecule  test_result
0  Cc1cccc(C)c1 [1,3-dimethylbenzene] + CC(O)C(=O)[O-].CC[N+]1(C)CCCC1         10.2
1  C1=CCCCC1 [cyclohexene] + CC(O)C(=O)[O-].CC[N+]1(C)CCCC1         20.7
2  Cc1ccccc1C [1,2-dimethylbenzene] + CC(O)C(=O)[O-].CC[N+]1(C)CCCC1         8.33

1 = CCCCCCC [heptane] + CC(O)C(=O)[O-].CC[N+]1(C)CCCC1
2 = CCCC(=O)CC [3-hexanone] + CC(O)C(=O)[O-].CC[N+]1(C)CCCC1
Query string: Name the one with the greater activity coefficient value, either 1 or 2 as given. Your choice should be expressed through its label.
Result string: 1

A = C=CCCCCCCCC [1-decene] + CC(O)C(=O)[O-].CC[N+]1(C)CCCC1
B = C=CCCCCCC [oct-1-ene] + CC(O)C(=O)[O-].CC[N+]1(C)CCCC1
C = C#CCCC [1-pentyne] + CC(O)C(=O)[O-].CC[N+]1(C)CCCC1
D = C1COCCO1 [1,4-dioxane] + CC(O)C(=O)[O-].CC[N+]1(C)CCCC1
E = CCCOCCC [dipropyl ether] + CC(O)C(=O)[O-].CC[N+]1(C)CCCC1
Query string: Rank order required: activity coefficient, descending. Write the labels in rank order as requested.
Result string: A, B, E, C, D
